These measurements were taken from patent US20240084003A1.

Target: T1, CD22 on cynomolgus monkey peripheral blood B cells (cynomolgus monkey (Macaca fascicularis))
T1 construct: whole, on cells; also called cynomolgus monkey B cells
Experiment: FACS, cynomolgus PBMC, CD20+ B cells, antibody 100 nM
MEASURED PARAMETER: Proportion of chimeric antibody positive cells to B cells (%)

BINDER	MEASUREMENT
F1.245.2 (antibody, human IgG1, kappa, V domains shown, human-murine chimeric IgG1 kappa) VH: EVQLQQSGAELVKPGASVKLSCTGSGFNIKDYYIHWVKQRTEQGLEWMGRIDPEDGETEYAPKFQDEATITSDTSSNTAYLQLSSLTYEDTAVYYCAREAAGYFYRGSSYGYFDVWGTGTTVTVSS VL: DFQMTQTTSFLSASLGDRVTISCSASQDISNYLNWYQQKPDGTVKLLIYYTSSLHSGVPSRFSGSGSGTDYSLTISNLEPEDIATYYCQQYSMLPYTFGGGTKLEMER	17
F2.70.2 (antibody, human IgG1, lambda, V domains shown, human-murine chimeric IgG1 lambda) VH: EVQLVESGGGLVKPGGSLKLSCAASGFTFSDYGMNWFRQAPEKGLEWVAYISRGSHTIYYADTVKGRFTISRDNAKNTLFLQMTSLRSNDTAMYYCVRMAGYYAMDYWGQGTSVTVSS VL: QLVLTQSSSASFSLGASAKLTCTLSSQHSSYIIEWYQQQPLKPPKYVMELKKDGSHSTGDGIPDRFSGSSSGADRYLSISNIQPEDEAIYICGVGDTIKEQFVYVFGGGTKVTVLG	34
F2.180.16 (antibody, human IgG1, lambda, V domains shown, human-murine chimeric IgG1 lambda) VH: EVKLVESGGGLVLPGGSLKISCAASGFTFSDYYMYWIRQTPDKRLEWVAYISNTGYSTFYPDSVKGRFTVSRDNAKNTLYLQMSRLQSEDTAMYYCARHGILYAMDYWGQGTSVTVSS VL: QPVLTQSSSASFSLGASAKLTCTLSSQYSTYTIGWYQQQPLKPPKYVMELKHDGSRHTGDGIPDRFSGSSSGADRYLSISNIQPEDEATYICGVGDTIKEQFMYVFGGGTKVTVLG	23
F1.17.1 (antibody, human IgG1, kappa, V domains shown, human-murine chimeric IgG1 kappa) VH: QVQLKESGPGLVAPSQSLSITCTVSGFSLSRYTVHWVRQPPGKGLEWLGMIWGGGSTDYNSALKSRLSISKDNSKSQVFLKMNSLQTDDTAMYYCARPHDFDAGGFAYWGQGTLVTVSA VL: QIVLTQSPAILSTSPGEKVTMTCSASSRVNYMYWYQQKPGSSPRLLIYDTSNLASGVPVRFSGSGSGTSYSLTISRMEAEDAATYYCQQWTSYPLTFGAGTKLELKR	68
F2.42.9 (antibody, human IgG1, lambda, V domains shown, human-murine chimeric IgG1 lambda; VL name legible) VH: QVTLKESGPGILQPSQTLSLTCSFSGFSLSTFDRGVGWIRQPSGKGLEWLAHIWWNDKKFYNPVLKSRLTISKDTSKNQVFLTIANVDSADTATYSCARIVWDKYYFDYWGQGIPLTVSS VL: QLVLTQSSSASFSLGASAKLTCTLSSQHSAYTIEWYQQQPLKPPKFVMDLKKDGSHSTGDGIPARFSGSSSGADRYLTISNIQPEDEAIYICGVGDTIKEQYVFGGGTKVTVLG	23
F1.161.7 (antibody, human IgG1, kappa, V domains shown, human-murine chimeric IgG1 kappa) VH: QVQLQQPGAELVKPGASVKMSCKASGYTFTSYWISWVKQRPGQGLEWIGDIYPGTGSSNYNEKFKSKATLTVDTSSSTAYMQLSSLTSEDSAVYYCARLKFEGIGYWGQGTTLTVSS VL: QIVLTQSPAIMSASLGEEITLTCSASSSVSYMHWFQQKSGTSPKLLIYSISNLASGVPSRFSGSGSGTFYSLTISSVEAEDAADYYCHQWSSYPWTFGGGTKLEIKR	29
F1.62.10 (antibody, human IgG1, kappa, V domains shown, human-murine chimeric IgG1 kappa) VH: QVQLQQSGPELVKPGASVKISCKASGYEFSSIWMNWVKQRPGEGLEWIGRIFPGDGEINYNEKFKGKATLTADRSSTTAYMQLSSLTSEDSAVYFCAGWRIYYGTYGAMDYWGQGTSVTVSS VL: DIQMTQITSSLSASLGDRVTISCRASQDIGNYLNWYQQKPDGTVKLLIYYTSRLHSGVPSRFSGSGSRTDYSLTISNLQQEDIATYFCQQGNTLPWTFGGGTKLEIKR	24
